The origin of these recorded values is paper PMC10397247.

Target: T1, P1-AA
T1 chain: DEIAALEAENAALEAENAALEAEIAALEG
Experiment: two-hybrid library CCmax;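 also: natural log of median RNA to DNA barcode read ratio; higher means stronger binding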
Conditions: mean of both orientations
Measurement Kind: interaction score

# annotated cases, reported interaction score shown
{"Binder": "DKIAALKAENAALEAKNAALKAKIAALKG [4H2750-AA]", "Measurement Kind": "interaction score", "Experimental Result": 1.56}
{"Binder": "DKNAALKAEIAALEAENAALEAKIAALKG [4H3606-AA]", "Measurement Kind": "interaction score", "Experimental Result": -1.64}

(A) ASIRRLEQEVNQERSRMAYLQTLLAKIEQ [4H_BCR]
(B) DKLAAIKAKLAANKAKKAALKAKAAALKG [AP2-AA]
Sorting by interaction score in descending order, would A or B appear first? Answer with the label corresponding to your selection.
B
